Protein target, amino acids: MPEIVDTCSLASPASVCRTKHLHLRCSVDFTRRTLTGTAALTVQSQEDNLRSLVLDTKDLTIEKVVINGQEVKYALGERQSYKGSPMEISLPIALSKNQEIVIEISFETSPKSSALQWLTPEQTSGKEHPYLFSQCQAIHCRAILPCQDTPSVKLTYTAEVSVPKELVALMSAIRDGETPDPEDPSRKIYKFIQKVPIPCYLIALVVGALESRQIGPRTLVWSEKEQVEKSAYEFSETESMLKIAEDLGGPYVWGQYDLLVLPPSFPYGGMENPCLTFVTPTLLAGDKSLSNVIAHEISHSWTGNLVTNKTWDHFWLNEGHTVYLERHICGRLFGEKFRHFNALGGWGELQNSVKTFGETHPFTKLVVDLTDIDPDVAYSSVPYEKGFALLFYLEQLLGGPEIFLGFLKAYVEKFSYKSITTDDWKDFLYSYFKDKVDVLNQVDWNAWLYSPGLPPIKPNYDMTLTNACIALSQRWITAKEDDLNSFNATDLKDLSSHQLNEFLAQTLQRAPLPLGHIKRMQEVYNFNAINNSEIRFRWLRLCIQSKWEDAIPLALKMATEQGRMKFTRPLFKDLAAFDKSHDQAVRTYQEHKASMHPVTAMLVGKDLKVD
reported-metric: IC50 (nM)
One number for each entry, in nM.

Sample answers from the record:
• N[C@@H](CO)Cn1nnc(-c2ccc(Oc3ccc(Cl)cn3)cc2)n1 [Example 31] = 4.5
• N[C@@H](CO)Cn1nnc(-c2ccc(Oc3ccc(-c4ccn[nH]4)cn3)cc2)n1 [Example 19] = 4.9
• N[C@H](CO)Cc1nc(-c2ccc(Oc3ccc(C(F)(F)F)cn3)cc2)no1 [Example 04] = 11.8
• N[C@H](CO)Cn1ccc(-c2ccc(Oc3ncc(-c4cc[nH]n4)cc3F)cc2)n1 [Example 37] = 2.6

Could you now look at the following compound, please?
Q) For the compound N[C@H](CO)Cc1nc(-c2ccc(Oc3ccc(Cl)cn3)cc2)no1 [Example 16] , what IC50 is on record?
A) 2.4

###

Molecular target: human LTA4H (Homo sapiens, UniProt P09960)
Sequence (P09960 1-611): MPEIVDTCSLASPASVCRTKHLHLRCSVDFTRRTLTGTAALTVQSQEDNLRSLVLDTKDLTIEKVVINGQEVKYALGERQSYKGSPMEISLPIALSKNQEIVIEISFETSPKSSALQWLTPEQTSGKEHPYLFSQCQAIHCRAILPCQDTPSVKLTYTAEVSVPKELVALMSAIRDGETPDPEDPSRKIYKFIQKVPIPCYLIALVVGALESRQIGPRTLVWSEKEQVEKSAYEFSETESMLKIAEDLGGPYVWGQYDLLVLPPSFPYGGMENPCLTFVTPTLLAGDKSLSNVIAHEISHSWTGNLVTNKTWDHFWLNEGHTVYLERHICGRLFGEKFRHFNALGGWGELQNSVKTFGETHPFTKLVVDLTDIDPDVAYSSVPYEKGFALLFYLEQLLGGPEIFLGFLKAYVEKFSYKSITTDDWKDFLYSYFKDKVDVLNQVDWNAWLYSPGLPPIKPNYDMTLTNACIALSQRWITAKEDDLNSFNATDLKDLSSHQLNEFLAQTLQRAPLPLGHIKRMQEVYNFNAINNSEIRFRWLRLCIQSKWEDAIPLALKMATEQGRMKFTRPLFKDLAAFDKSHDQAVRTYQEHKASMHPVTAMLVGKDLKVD
reported-metric: IC50 (nM)
Give bare numbers, in nM.

* N[C@H](CO)Cn1ccc(-c2ccc(Oc3ncc(Cl)cc3F)cn2)n1 | 37.6
* N[C@H](CO)Cn1cc(-c2ccc(Oc3ncc(Cl)cc3F)cc2)cn1 | 160

Now for another entry.
Q) If you can, please state the reported IC50 value of `N[C@H](CO)Cn1nnc(-c2ccc(Oc3ccc(-c4ccn[nH]4)cn3)cc2)n1` .
A) 3.2
